B1: LINE1-full (parent)
chain: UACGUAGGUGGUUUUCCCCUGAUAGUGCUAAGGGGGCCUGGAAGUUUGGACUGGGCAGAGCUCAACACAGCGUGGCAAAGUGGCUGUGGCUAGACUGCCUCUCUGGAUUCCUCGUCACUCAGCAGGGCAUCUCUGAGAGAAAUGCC

- Variants of: B1
- Assay protocol: self-cleavage, relative activity (ratio to wild type); higher = more cleavage; in vitro, sequencing; the parent is a self-cleaving ribozyme

| Mutation code | self-cleavage |
| --- | --- |
| A67G A117G | 0.52 |
| G10A A22C | 1.54 |
| G75A A94U | 0.35 |
| U1A U115A | 1.1 |
| U14A U81C | 1.1 |
| A64U A77C | 0.39 |
| U52A U112A | 0.8 |
| G54A U62C | 0.07 |
| U13A U96C | 0.1 |
| U14G G36U | 1.51 |
| U47C G114A | 1.66 |
| C16U U132A | 1.41 |
| U81C A94U | 0.37 |
| U39A A79G | 1.35 |
| G122U C123U | 0.8 |
| U46A G70A | 0.24 |
| U12A A50G | 1.45 |
| U29G U96A | 0.06 |
| U13C U91C | 0.99 |
| U85C U115A | 0.19 |
| U12C U29A | 1.16 |
| G40U U52A | 0.99 |
| A22G A124C | 1.49 |
| U52C U85A | 0.13 |
| C84A A141G | 0.09 |
| U23C G74A | 0.99 |
| U102A U109A | 1.03 |
| G40A A50U | 0.84 |
| A50U A57G | 0.08 |
| U87A A94U | 0.04 |
| G4A A30G | 0.59 |
| U14A U81G | 0.8 |
| G60U U104C | 0.04 |
| G7U U115C | 0.79 |
| U26C U85C | 0.27 |
| U52G A94U | 0.42 |
| U5C A64U | 0.49 |
| G32U U100C | 2.02 |
| U5C U134A | 0.62 |
| U5C U104C | 1.11 |
| U13A U73C | 0.94 |
| G36A U52A | 1.21 |
| A67U U115C | 0.34 |
| U119C G125U | 2.39 |
| G4C U87C | 0.74 |
| U47G A107G | 1.24 |
| G35C | 1.31 |
| A77G U143A | 1.85 |
| G88A U96A | 0.03 |
| U14A U102A | 0.99 |
| A79G G106U | 1.48 |
| G53U A141G | 1.58 |
| U12A U39C | 1.17 |
| U12G C19U | 1.09 |
| C56A U143A | 0.09 |
| U119C A142G | 1.33 |
| A65U G97A | 0.04 |
| U15C A22G | 1.24 |
| G75C A142U | 0.66 |
| U20C C131U | 1.18 |
| U96C U108A | 0.09 |
| A67G A142G | 0.46 |
| A64U A138C | 0.64 |
| G33A U62A | 0.01 |
| C123U A136G | 1.49 |
| U81A C146U | 1.56 |
| A6G A77G | 1.18 |
| A59G C113A | 0.07 |
| U9A A142G | 1.13 |
| U13C A107G | 1.39 |
| A77U U109G | 0.61 |
| C98U A142U | 0.47 |
| G10A A136U | 0.95 |
| U13C U39C | 1.08 |
| U5C A94U | 0.76 |
| U5C G41U | 1.03 |
| A31G U47A | 0.94 |
| C76G A78G | 1.7 |
| U47A A50U | 0.87 |
| U15C G33A | 1.05 |
| U39G A140G | 1.31 |
| G40U U132A | 1.31 |
| U12C C111U | 1.74 |
| A79G A142G | 1.12 |
| U23C A65U | 0.09 |
| U39C A136U | 1.25 |
| G25U U39A | 0.31 |
| U45A A79G | 1.39 |
| U13A U132A | 0.87 |
| G122A A142G | 0.42 |
| G21U U45C | 1.44 |
